Reference source for all entries: PubChem BioAssay AID1851

Hi there, I'd appreciate the recorded activity, negative = inhibition for every entry that follows.
Biological target: Cytochrome P450 2C9 (Homo sapiens) (UniProt P11712)
Sequence (P11712 whole entry, looked up): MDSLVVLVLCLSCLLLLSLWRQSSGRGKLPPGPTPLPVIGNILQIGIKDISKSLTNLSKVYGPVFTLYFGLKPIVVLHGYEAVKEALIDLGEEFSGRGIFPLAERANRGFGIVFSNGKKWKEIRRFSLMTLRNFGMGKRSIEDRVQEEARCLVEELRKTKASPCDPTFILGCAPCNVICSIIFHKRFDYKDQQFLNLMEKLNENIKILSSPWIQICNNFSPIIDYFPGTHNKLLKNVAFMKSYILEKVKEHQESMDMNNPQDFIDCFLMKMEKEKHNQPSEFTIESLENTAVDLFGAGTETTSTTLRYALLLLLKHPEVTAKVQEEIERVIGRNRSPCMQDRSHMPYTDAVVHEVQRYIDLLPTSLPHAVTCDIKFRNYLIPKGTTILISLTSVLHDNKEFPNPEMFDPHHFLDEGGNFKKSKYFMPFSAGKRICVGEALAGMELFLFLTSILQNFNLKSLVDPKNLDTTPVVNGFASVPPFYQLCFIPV
Assay: Cytochrome panel assay with activity outcomes; note: % is set by controls: 0 for no effect and ±100 for the full control effect
Settings: recombinant CYP, pro-luciferin dealkylation, luminescence, p450-cyp2c9; series mostly up to 57.1 µM
Among all 16,000 compounds or so, about 4,000 (25%) were called active. Inconclusive results (about 26%) are left out. Not all results are given here.

Example cases with answers are listed next.
>  <LINE NOTATION>
N#Cc1ccccc1-c1ccc2ncnc(NC3CC3)c2c1

>  <activity, negative = inhibition>
-9.89% [at 2.29 µM] (inactive)

$$$$
>  <LINE NOTATION>
COCCNc1ncnc2ccc(-c3cccc(OC)c3)cc12

>  <activity, negative = inhibition>
26.2% [at 2.29 µM] (inactive)

$$$$
>  <LINE NOTATION>
O=c1oc2cc(N=Cc3ccc4c(c3)OCO4)ccc2c2ccccc12

>  <activity, negative = inhibition>
-21.1% [at 11.4 µM] (inactive)

$$$$

Batch: activity, negative = inhibition for all items listed.
1. COc1cccc(-c2ccc3ncnc(NC4CC4)c3c2)c1
2. O=[N+]([O-])c1ccc2c(c1)Cc1cc(N=Cc3ccc4c(c3)OCO4)ccc1-2
3. CC[C@@H]1CC(=O)N(SC[C@H](N)C(=O)O)C1=O
4. Cc1cnc(CNc2ncnc3ccc(-c4ccc5c(c4)OCO5)cc23)cn1
5. COCCNc1ccnc(-c2c(C)noc2C)n1
6. CC(=O)NCCNc1ncncc1-c1ccc(N(C)C)cc1

1: -17.4% [at 2.29 µM] (inactive); 2: -3.27% [at 11.4 µM] (inactive); 3: 10.2% [at 11.4 µM] (inactive); 4: -11.4% [at 2.29 µM] (inactive); 5: 17.7% [at 2.29 µM] (inactive); 6: -1.01% [at 2.29 µM] (inactive)

Batch: activity, negative = inhibition for all items listed.
1. COc1ccccc1-c1nc(N(C)Cc2ccco2)c2ccccc2n1
2. COc1ccc2[nH]cc(CCNc3cc(-c4cccnc4)ncn3)c2c1
3. C[C@@H]1/C=C\CC(=O)OC[C@H](C)C(=O)N2CCC[C@@H]2C(=O)OC1

1. -7.62% [at 2.29 µM] (inactive)
2. -3.3% [at 2.29 µM] (inactive)
3. -11.7% [at 11.4 µM] (inactive)
